System: OVCAR-4 ovarian
Assay: NCI tumour cell line growth inhibition, 48 h
Quantity kind: TGI (µM)
One number for each entry, in µM.

>>> experimental_value("CNC(=O)c1c(NC(=O)c2ccc(C(C)(C)C)cc2)sc2c1CCC(=O)C2")
0.991

I would be grateful if you could provide TGI for each of the following entries.
1. COc1ccc(C/C(=C(\C)c2ccc(OCCN3CCCC3)cc2)c2ccc(OCCN3CCCC3)cc2)cc1
2. CCOC(=O)C(=O)CC1=Nc2ccccc2SC(c2cccc(C)c2)C1 (stereo not given)

[5.1, 32]

====

System: SF-268 CNS
Experiment: NCI tumour cell line growth inhibition, 48 h; in the data active = GI50 below about 0.43 µM; inactive = the rest
Outcomes you can answer with include only these: 1 for active, 0 for inactive

Here's what some known entries look like.
>>> class_name("CC(C)(C)c1ccc(Oc2ccc(N)cn2)cc1")
0
>>> class_name("C=C(NC(=O)C(=C)NC(=O)c1csc(C2=NC3c4csc(n4)C4NC(=O)c5csc(n5)C(C(C)(O)C(C)O)NC(=O)C5CSC(=N5)/C(=C/C)NC(=O)C(C(C)O)NC(=O)c5csc(n5)C3(CC2)NC(=O)C(C)NC(=O)C(=C)NC(=O)C(C)NC(=O)C(C(C)CC)NC2C=Cc3c(C(C)O)cc(nc3C2O)C(=O)OC4C)n1)C(N)=O (configuration not stated)")
0
>>> class_name("COc1ccc2c(c1)[nH]c(=O)c1c3cccc(F)c3cn21")
1
>>> class_name("CC1=C(c2ccccc2)C(O)(c2ccccc2)C(C)C1=O (configuration not stated)")
0
>>> class_name("COc1ccc(/C(COc2ccc3oc(-c4ccccc4)cc(=O)c3c2)=N\\O)cc1")
1
>>> class_name("O=C([CH-]C(=O)c1ccccc1)c1ccccc1.[CH-]1CCCCC1.[CH-]1CCCCC1.[CH-]1CCCCC1.[Sn+4]")
0

Now consider a different compound.
How was CC1=C(SCCC(=O)OC(C[Se]C2=C(C)C(=O)c3ccccc3C2=O)C(=O)NCCCCCC(=O)OCc2ccccc2)C(=O)c2ccccc2C1=O (configuration not stated) classified in this test?
0

====

Test system: DMS 114 small cell lung
Assay: NCI tumour cell line growth inhibition, 48 h
Quantity kind: TGI

Consider the following items and state reported TGI for each.
1. CC(=O)Nc1c(Nc2ccccc2)[nH]c(C)nc1=S
2. Cc1cccc(C2SCc3nc4ccccc4n32)c1 (stereo unspecified)
3. O=C(/C=C/c1ccccc1F)c1ccc(Cl)c(Cl)c1
4. O=C(c1ccc(Cl)cc1)N(C(=S)N1CCN(c2ccccn2)CC1)C1CCCCC1

1: > 100 µM; 2: 28.3 µM; 3: 55.5 µM; 4: > 100 µM

====

System: OVCAR-5 ovarian
Assay: NCI tumour cell line growth inhibition, 48 h
Kindly supply the reported GI50 values for the records listed here.

>>> experimental_value("Cc1ccc(/C=N/Nc2nc(Nc3ccccc3)nc(-n3nc(C)cc3C)n2)cc1")
"15.4 µM"
>>> experimental_value("CC1=C(SCCC(=O)OC(C[Se]C2=C(C)C(=O)c3ccccc3C2=O)C(=O)NCCCCCC(=O)OCc2ccccc2)C(=O)c2ccccc2C1=O (stereo not drawn)")
"5.05 µM"

Now, please, on to the next compound.
Quick one: give measured GI50 for NCCCC[C@@H]1NC(=O)[C@H](CC(=O)O)NC(=O)CNC(=O)[C@H](CCCN=C(N)N)NC(=O)[C@@H](N)CSSC[C@@H](C(=O)O)NC(=O)[C@H](CC(=O)O)NC(=O)[C@@H]2CCCN2C(=O)CNC1=O
> 100 µM
